# Subject of test: FGFR1 (UniProt P11362)
# Sequence (P11362 whole entry, looked up): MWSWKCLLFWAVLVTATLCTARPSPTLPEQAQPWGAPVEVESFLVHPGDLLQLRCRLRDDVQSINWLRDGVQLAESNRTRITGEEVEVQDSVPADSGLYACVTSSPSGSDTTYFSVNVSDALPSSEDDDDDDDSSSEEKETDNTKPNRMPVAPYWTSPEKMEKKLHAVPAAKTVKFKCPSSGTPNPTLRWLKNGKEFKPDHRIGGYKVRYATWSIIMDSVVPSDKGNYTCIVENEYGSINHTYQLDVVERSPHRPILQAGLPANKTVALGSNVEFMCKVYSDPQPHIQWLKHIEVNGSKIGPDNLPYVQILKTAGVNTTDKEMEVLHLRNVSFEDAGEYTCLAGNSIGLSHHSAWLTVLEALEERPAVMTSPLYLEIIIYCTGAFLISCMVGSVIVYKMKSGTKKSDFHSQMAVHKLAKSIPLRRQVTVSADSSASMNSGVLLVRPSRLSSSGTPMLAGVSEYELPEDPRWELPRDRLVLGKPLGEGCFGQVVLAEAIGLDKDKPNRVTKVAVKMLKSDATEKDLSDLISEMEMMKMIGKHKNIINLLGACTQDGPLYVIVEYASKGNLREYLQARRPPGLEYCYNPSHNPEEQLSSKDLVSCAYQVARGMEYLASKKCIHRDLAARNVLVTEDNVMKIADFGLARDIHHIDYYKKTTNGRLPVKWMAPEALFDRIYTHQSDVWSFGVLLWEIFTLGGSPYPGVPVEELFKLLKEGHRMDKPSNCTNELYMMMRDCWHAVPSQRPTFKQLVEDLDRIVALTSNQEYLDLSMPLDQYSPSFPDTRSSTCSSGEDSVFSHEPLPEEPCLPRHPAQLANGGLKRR
# Assay notes: phosphorylation enrichment, bacterial display (enrichment ratio); higher = better substrate or ligand; peptides without Tyr show the background;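 further: 11-residue human phosphosite peptides and single-mutation variants displayed on the E. coli surface, counted by deep sequencing, each peptide's frequency after selection divided by its frequency in the unselected input library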;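 further: frequency after pTyr selection over input frequency; kinase dosed for 20-30% of maximal phosphorylation in three min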
Quick list: phosphorylation enrichment per entry.

Problem: Request the reported phosphorylation enrichment associated with SGIFQYNIAKF [FOXL2_Y83_I84N_YF]
Result: 0.486

Problem: How about this sequence: AKLNIYKRKVE [VWA3B_Y918]
Result: 0.331

Problem: Same thing, different sequence: VRTSKYRGGGG [HBA1_Y141_L137R]
Result: 0.423

---

Recorded measurements of phosphorylation enrichment, one per entry
# Subject of test: Hck (UniProt P08631)
# Sequence (P08631 whole entry, looked up): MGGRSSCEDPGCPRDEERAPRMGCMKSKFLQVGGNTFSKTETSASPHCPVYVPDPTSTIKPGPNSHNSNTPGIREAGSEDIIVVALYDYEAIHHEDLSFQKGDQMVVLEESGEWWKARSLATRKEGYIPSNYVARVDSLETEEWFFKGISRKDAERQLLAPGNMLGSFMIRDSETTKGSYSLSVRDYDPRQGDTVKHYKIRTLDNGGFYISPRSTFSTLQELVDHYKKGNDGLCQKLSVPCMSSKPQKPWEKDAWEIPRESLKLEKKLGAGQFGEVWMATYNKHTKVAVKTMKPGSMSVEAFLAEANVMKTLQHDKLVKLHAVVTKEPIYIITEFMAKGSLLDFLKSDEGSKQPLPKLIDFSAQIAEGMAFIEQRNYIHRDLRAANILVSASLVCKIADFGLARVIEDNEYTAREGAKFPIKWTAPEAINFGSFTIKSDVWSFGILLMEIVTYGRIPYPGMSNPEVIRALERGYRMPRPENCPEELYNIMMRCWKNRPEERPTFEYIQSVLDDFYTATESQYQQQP
# Assay notes: phosphorylation enrichment, bacterial display (enrichment ratio); higher = better substrate or ligand; peptides without Tyr show the background
// return a plain number; no unit text

RRAKGYPIDLF [ITGB2_Y125_YF] :: 0.57

Problem: Could you tell me which phosphorylation enrichment is on file for EVKAQYEDIAQ [KRT1_Y358] ?
Result: 0.69

Problem: // same read-out, input: IHSGIYYKPES [L2HGDH_Y102]
Result: 5.38

Problem: Also RAILDYIASKY [GSTA3_Y74_N73D] , if possible.
Result: 0.471

Problem: Next record, please: FPSLPYSPVSS [CAMKK2_Y128_C123Y_YF]
Result: 0.59

---

# System: c-Abl (mouse)
# Assay notes: phosphorylation enrichment, bacterial display (enrichment ratio); higher = better substrate or ligand; peptides without Tyr show the background
Please enter true where phosphorylation enrichment is greater than or equal to 1, and false where it is lower.

Recorded results for 8 sequences are shown here.
GEEIKYTLWLS [OTC_Y55_M56T] :: false
AAVLNYKAWRD [GRIN2A_Y737_G740W] :: false
CSHMFYGKQCC [ADAMTS16_Y1211_K1209M] :: false
YVFSFYHAFSG [ACTN4_Y265_S262F] :: true
SSPVLYLSPET [TJP1_Y931_P930L] :: true
LRNRVYEVPVE [SLC26A3_Y756] :: true
NQNIGYKLGHR [KCNN3_Y268] :: false
NRLTDYYEPLL [BBS10_Y536] :: true

Problem: Hi team, for SYMVRYNQPRV [GRIN2D_Y736] , is the recorded phosphorylation enrichment at or above 1?
Result: false

Problem: Further, for SSDKVYAHQMV [MLH1_Y379] ?
Result: false

Problem: Input YRTGHYLCNAC [GATA1_Y223_D218Y]
Result: false

Problem: Same thing, different sequence: SIIKDSFHRGA [GATM_Y203_Y203S]
Result: false

Problem: Thanks! And LEDDMYRKTCT [XPA_Y257] ?
Result: true

Problem: Next record, please: DEIPLYLKGGV [COX7A2_Y44]
Result: false

---

# Subject of test: EPHB2 (UniProt P29323)
# Sequence (P29323 whole entry, looked up): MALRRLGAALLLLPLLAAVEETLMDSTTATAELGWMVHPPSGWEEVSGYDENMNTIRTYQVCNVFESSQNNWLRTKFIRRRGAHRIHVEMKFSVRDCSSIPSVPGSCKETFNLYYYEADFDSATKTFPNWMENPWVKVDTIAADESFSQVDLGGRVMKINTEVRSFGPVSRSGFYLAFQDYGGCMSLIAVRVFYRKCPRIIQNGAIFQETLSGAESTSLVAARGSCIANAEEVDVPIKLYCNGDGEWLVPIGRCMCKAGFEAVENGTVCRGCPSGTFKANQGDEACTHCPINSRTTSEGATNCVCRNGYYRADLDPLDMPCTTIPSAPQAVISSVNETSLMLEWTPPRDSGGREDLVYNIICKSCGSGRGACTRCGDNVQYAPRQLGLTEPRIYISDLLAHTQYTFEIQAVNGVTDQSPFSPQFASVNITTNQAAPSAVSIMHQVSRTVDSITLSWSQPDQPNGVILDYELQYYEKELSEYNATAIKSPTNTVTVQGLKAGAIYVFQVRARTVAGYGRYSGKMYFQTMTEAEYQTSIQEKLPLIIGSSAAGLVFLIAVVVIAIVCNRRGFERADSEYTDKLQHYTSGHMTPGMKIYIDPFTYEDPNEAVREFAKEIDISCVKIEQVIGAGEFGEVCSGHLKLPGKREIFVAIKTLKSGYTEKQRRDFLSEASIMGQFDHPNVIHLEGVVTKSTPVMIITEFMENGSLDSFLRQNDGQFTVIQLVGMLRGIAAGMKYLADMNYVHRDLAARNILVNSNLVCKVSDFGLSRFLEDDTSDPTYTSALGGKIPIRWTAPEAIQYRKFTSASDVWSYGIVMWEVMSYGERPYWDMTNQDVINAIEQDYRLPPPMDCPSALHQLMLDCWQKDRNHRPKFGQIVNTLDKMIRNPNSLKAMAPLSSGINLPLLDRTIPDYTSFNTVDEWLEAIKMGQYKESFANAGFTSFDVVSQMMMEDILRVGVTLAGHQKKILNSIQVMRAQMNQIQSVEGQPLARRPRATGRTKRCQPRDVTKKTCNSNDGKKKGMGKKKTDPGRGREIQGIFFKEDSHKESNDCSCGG
# Assay notes: phosphorylation enrichment, bacterial display (enrichment ratio); higher = better substrate or ligand; peptides without Tyr show the background
Measure: phosphorylation enrichment
Give the figure only, with no unit attached.

Worked set:
IHSGIYYKPES [L2HGDH_Y102] :: 2.02
LARDMDDKEYY [MET_Y1230_Y1230D] :: 1.13
FDNSVYQKTTE [LDLR_Y828_P826S] :: 0.488
SVEVPYEPPEV [TP53_Y220_V217E] :: 0.675
ENFDDYMKDVG [FABP4_Y20_E23D] :: 0.663
LFMGDYVDRGF [PPP2CA_Y86_YF] :: 1.19

In the following, a different sequence is considered.
Problem: Which value of phosphorylation enrichment has been reported for RGDIFYTSKLW [AKR1C3_Y81_E77G] in the records?
Result: 0.963

---

Reported phosphorylation enrichment values are given for each entry in this list.
# Subject of test: FGFR1 (UniProt P11362)
# Assay notes: phosphorylation enrichment, bacterial display (enrichment ratio); higher = better substrate or ligand; peptides without Tyr show the background
Just the number, please.

ATVLNYLPKCI [A2M_Y817] :: 0.519
APGNAYGDAGF [SYP_Y250_D248N_YF] :: 0.373
RARIRYAQEHD [NSD1_Y1987] :: 0.689
TKGMIYGGGGG [PSME1_Y249] :: 0.457
RPLVVYPWTQR [HBB_Y36_L32P] :: 0.473
HPFNSYTFPRL [PAK5_Y316_S312P_YF] :: 0.531
IRTIDYRYTVS [IDS_Y497_W502S] :: 0.593
GGFNNYGFGSD [HNRNPH3_Y159_N163S_YF] :: 0.48

Problem: Given the entry PKEQRYSFLQN [GH1_Y68_K67R] , report its measured phosphorylation enrichment.
Result: 1.12

Problem: Note, next up: IKGIRYLHHRG [GUCY2D_Y656]
Result: 0.348

Problem: Also PYYASYPPSPD [GDAP2_Y491_T489A] , if possible.
Result: 4.96

Problem: Follow-up item: VEDQYYCVDCY [FHL1_Y208]
Result: 12

Problem: Please do the same for SLEKSYELPDG [ACTA1_Y242] as well.
Result: 0.544

Problem: Would you mind doing IVEYAYNDKAV [PUM3_Y259_I264V] as well?
Result: 0.52

Problem: Repeat for the following sequence: FESPRYLQVHI [FANCA_Y488]
Result: 0.534

---

# Subject of test: Jak2 (UniProt O60674)
# Sequence (O60674 whole entry, looked up): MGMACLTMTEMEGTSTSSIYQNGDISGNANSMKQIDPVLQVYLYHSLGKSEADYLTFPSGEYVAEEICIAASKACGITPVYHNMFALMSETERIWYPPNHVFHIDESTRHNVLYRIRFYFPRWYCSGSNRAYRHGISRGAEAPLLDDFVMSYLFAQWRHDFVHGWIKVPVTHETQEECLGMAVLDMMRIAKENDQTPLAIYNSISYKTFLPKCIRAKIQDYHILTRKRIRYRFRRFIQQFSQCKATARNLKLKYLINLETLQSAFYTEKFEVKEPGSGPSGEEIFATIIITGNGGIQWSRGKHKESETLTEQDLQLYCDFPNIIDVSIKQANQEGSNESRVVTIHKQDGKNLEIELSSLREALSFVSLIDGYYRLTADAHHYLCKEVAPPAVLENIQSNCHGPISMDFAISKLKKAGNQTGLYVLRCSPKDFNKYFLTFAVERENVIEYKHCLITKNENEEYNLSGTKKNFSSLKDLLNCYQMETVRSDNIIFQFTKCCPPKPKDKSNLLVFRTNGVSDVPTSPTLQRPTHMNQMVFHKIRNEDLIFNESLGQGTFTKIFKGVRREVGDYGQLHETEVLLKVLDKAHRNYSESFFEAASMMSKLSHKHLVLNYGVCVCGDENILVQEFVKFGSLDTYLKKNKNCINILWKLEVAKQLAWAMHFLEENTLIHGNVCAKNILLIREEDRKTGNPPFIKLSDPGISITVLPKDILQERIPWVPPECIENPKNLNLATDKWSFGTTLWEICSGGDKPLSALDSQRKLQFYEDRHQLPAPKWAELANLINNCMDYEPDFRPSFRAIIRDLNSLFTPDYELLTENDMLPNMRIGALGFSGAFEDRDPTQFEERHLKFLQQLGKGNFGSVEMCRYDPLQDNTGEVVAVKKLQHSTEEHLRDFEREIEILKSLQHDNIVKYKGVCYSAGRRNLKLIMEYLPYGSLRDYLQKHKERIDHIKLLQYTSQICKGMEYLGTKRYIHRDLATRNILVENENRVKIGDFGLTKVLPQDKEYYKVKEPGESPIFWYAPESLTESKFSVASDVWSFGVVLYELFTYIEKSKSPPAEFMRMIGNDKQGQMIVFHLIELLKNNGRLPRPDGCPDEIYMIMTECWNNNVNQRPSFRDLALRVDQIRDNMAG
# Assay notes: phosphorylation enrichment, bacterial display (enrichment ratio); higher = better substrate or ligand; peptides without Tyr show the background
Each entry gets N if its phosphorylation enrichment stays under 0.7, and Y if its phosphorylation enrichment is 0.7 or above.

# example entries with known answers
MKKQKYGRIIM [HSD17B4_Y143] :: Y
YRQLPYCPSVE [CTNND2_Y508_Q507P] :: Y
ANVKWYRSGRE :: N
MCITQYERESQ [PRNP_Y218] :: N

Problem: Could you please find out whether ATVLNYLPKCI [A2M_Y817] has phosphorylation enrichment that meets 0.7 or exceeds it?
Result: Y

Problem: Note, next up: VQEDIYDEFVE [ALDH2_Y332]
Result: Y

Problem: Item: DGQVNYEELVQ [CALM1_Y139_F142L]
Result: Y

Problem: Also check RAIELYNDKEK [OTULIN_Y244]
Result: Y

Problem: Repeat for the following sequence: NNRVFYGNSDC [RS1_Y177_R182C]
Result: Y

Problem: And then LWPIWYRCRRP [MRGPRX1_Y130_H133R] , what is it?
Result: N

Problem: Input HGEAVYSRDCV [XPC_Y676_R671H]
Result: Y

Problem: Lookup FQRLRYIKQLG [SAMHD1_Y146]
Result: N

Problem: Next record, please: VKYGAYINDFK [GLB1_Y488_N484K]
Result: N

Problem: Next sequence: KIVATYRLCSE [DNAH3_Y1586]
Result: Y

---

# Subject of test: Jak2 (UniProt O60674)
# Assay notes: phosphorylation enrichment, bacterial display (enrichment ratio); higher = better substrate or ligand; peptides without Tyr show the background
Everything with phosphorylation enrichment lower than 0.7 is No; everything else, including exactly 0.7, is Yes.

VRTSKYRGGGG [HBA1_Y141_L137R] :: No
PDKRIYQFTAA [SKAP2_Y197] :: No
ALKWGYTVKGI [OAT_Y158_R154L] :: Yes

Problem: Decide: phosphorylation enrichment of DNQFAYLKAII [HNF4A_Y288_E285Q_YF] >= 0.7?
Result: Yes

Problem: Try this sequence next: TPIYPYLLPKS [PLD2_Y580_T577I]
Result: Yes

Problem: What do you have for MFQVQYNSSVD [LRFN1_Y458_YF] ?
Result: Yes

Problem: Now the same for SEPDLYYDPRG [PKP1_Y160_C161Y]
Result: Yes

Problem: Then this sequence: KQRSDYARELE [MYH3_Y1140]
Result: No

---

# Tested on: c-Src
# Assay notes: phosphorylation enrichment, bacterial display (enrichment ratio); higher = better substrate or ligand; peptides without Tyr show the background
This listing pairs sequences with measured phosphorylation enrichment.
No unit in the answer, only the number.

DRPASYLEKVR [KRT13_Y118_L115P] :: 0.362
YRAPGYREVVI [TNS2_Y673] :: 0.419
VDEVLYEDSSA [MTHFS_Y197_T202A] :: 0.647
INMKEYCKKDF [NTN1_Y490_K489E_YF] :: 0.476
VRQQDYKKVEE [HADHA_Y283_V282D] :: 0.43
TGNPAYRSFSN [IL4R_Y497_A492T] :: 0.373
CQASLYPSNHD [LRIG1_Y996_G993A] :: 0.449
FASTGYVIAIQ [GRIN2B_Y762_G763V] :: 0.4
QNTGNYYDLYG [PTPN11_Y62_D61N] :: 5.18
YRDALYKFMVD [PHEX_Y250] :: 0.624

Problem: Bench note: what phosphorylation enrichment did LEDDMYRKTCT [XPA_Y257] show?
Result: 0.624

Problem: And for VEDHYYEGGIG [TKT_Y564] ?
Result: 0.628

Problem: Lookup MCDKEYFSVHN [MET_Y1234_Y1230C_YF]
Result: 0.576

Problem: Proceed to SGVSFYINLCQ [IGF2R_Y2025_N2020S_YF]
Result: 0.522
